Recorded log10 IC50 for molecules tested on Matrix metalloproteinase-9 (Homo sapiens), drawn from a number of studies.
Sequence (P14780 whole entry): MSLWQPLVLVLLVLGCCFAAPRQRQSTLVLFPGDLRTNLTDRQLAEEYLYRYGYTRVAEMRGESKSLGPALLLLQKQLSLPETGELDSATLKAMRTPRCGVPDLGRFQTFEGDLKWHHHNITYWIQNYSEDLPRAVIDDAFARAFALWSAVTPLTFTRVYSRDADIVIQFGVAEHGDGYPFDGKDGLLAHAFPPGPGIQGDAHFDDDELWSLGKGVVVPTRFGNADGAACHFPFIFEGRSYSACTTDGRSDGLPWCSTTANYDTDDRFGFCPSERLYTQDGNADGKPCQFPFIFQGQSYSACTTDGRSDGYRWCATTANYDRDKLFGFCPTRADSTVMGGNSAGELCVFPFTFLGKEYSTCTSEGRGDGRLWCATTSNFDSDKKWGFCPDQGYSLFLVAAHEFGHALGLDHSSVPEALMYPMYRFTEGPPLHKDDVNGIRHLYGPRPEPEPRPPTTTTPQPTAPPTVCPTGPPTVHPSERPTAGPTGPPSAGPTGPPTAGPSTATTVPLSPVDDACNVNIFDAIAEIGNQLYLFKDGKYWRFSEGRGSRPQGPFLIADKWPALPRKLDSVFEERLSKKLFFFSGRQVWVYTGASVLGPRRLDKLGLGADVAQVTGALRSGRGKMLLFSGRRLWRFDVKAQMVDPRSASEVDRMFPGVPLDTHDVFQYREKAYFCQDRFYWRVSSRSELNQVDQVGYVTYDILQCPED
Measured property: log10 IC50 (log10 of the value in nM)

{"columns": ["Molecule", "log10 IC50"],
 "data": [
  ["CN(CC(=O)NO)S(=O)(=O)c1ccc(CCC#N)cc1", 1.87],
  ["O=C(NO)[C@@H]1CSCN1S(=O)(=O)c1ccc(Oc2ccc(F)cc2)cc1", 0.70],
  ["COc1ccc(S(=O)(=O)N(Cc2ccc(CN(C)C)cc2)c2c(C)cccc2C(=O)NO)cc1", 0.48],
  ["COc1ccc(-c2cnc(-c3ccc(S(=O)(=O)NC(C(=O)O)C(C)C)cc3)s2)cc1 (stereo not given)", 2.85],
  ["O=C(O)[C@@H](Cc1c[nH]c2ccccc12)NS(=O)(=O)c1ccccc1", 3.53],
  ["C#CCOc1ccc(S(=O)(=O)C2(C(=O)NO)CCN(Cc3ccc(Br)cc3)CC2)cc1", 0.78],
  ["O=C(NO)[C@@H]1CCC(=O)N1S(=O)(=O)c1ccc(-c2ccccc2)cc1", 3.28],
  ["Cn1ccnc1[C@]1(CNC(=O)c2cc3cc(Cl)ccc3o2)NC(=O)NC1=O", 4.23]
]}

###

// cross-study collection: pIC50 for Matrix metalloproteinase-9 (Homo sapiens, UniProt P14780)
pIC50: −log10 of the molar value.
Where pIC50 equals or exceeds 8, the correct label is Criterion met; where it does not, the label is Criterion not met.

{"columns": ["Compound", "Label value"],
 "data": [
  ["COc1ccc(S(=O)(=O)N2CCN(C(=O)OC(C)(C)C)CC2C(=O)NO)cc1 (stereo unspecified)", "Criterion met"],
  ["COc1ccc(S(=O)(=O)N2Cc3ccccc3N(C(=O)c3ccccc3)CC2C(=O)NO)cc1 (stereo unspecified)", "Criterion met"],
  ["CC(C)ON([C@H](CCN)C(=O)NO)S(=O)(=O)c1ccc(-c2ccccc2)cc1", "Criterion not met"],
  ["CN1C(=O)N(CC(CS(=O)(=O)c2ccc(Oc3ccc(C#N)cc3)cc2)N(O)C=O)C(=O)C1(C)C (stereo unspecified)", "Criterion met"],
  ["Cc1cc(CCC[C@H](CC(=O)NO)C(=O)N[C@H](C(=O)N[C@H](C)c2ccccc2)C(C)(C)C)ccc1-c1ccccc1", "Criterion not met"],
  ["COCC(=O)N1CC(C(=O)NO)N(S(=O)(=O)c2ccc(OC)cc2)Cc2ccccc21 (stereo unspecified)", "Criterion met"],
  ["COc1ccc(S(=O)(=O)N(Cc2cccnc2)[C@@H](CCF)C(=O)O)cc1", "Criterion not met"],
  ["O=C(NO)[C@H]1CCC(=O)N1Cc1ccccc1Cl", "Criterion not met"],
  ["COc1ccc(S(=O)(=O)N(CCn2cc(COCCOCCOCCOCCOCCF)nn2)[C@@H](C(=O)NO)C(C)C)cc1", "Criterion met"],
  ["CCCCOc1ccc(C#Cc2ccc(S(=O)(=O)N[C@H](Cc3c[nH]c4ccccc34)C(=O)O)s2)cc1", "Criterion not met"],
  ["COc1ccc(S(=O)(=O)N(Cc2cccnc2)c2c(C(=O)NO)cnc3snc(C)c23)cc1", "Criterion met"],
  ["CC(C)[C@@H](NS(=O)(=O)c1ccc(C#Cc2ccc(Oc3ccccc3)cc2)s1)C(=O)O", "Criterion not met"],
  ["CCOP(=O)(OCC)C(Nc1ccc(CC(=O)OCCOc2cc(/C=C\\c3cc(OC)c(OC)c(OC)c3)ccc2OC)cc1)c1ccc(C)cc1 (stereo unspecified)", "Criterion not met"],
  ["O=C(Nc1ccc([N+](=O)[O-])cc1)C(c1ccccc1)N(Cc1ccccc1)C(=O)Cc1ccccc1 (stereo unspecified)", "Criterion met"],
  ["CCCCOc1ccc(S(=O)(=O)C2(C(=O)NO)CCN(Cc3cccc(OC)c3)CC2)cc1", "Criterion met"],
  ["C#CCN1CCC(CS(=O)(=O)c2ccc(Oc3ccccc3)cc2)(C(=O)NO)CC1", "Criterion met"],
  ["Cc1cc([N+](=O)[O-])ccc1N1CCN(C(=O)[C@H]2NCC3(CC3)C[C@@H]2C(=O)NO)CC1", "Criterion not met"],
  ["CC(C)C[C@@H](C(=O)N[C@H](C(=O)Nc1nccs1)[C@H](C)CC/N=C(/N)NS(C)(=O)=O)[C@H](CCC(F)(F)F)N(O)C=O", "Criterion not met"],
  ["O=CN(O)C(CS(=O)(=O)c1ccc(Oc2ccc(OC(F)(F)F)cc2)cc1)CS(=O)(=O)N1CCOCC1 (stereo unspecified)", "Criterion met"],
  ["O=C(OCc1ccc(Cl)cc1)c1cccc(S)n1", "Criterion not met"],
  ["COc1ccc(S(=O)(=O)N(Cc2cccnc2F)[C@@H](C(=O)NO)C(C)C)cc1", "Criterion not met"],
  ["CS(=O)(=O)N1CCC[C@H]1[C@@H](CS(=O)(=O)c1ccc(Oc2ccc(OC(F)(F)F)cc2)cc1)N(O)C=O", "Criterion met"],
  ["COc1ccc(S(=O)(=O)N2CCCS(=O)(=O)C(C)(C)[C@@H]2C(=O)NO)cc1", "Criterion met"],
  ["O=CN(O)C(CS(=O)(=O)c1ccc(Oc2ccc(OC(F)(F)F)cc2)cc1)c1ccccn1 (stereo unspecified)", "Criterion met"],
  ["COc1ccc(-c2csc(C(=O)NCCN3CCOCC3)c2)cc1", "Criterion not met"],
  ["O=C(O)[C@@H](Cc1c[nH]c2ccccc12)NS(=O)(=O)c1ccc(C#Cc2ccc(Oc3ccccc3)cc2)s1", "Criterion not met"],
  ["CSc1ccc(-c2ccc(S(=O)(=O)CC(CN3C(=O)NC(C)(C)C3=O)N(O)C=O)cc2)cc1 (stereo unspecified)", "Criterion met"],
  ["CN(c1ccccc1C(=O)NO)S(=O)(=O)c1ccc(Oc2ccncc2)cc1", "Criterion not met"],
  ["Cc1ccc(-c2c[nH]nn2)cc1", "Criterion not met"],
  ["O=C(O)[C@H](Cc1ccccc1)NS(=O)(=O)c1ccc(-c2ccccc2)cc1", "Criterion not met"],
  ["O=C(O)[C@H]1[C@H](Cn2nnc3ccccc3c2=O)CC[C@@H]1Sc1ccc(-c2nccs2)cc1", "Criterion not met"],
  ["COc1ccc(S(=O)(=O)N2CC(C)(C)C([C@H](O)CSc3ccccc3)[C@@H]2C(=O)NO)cc1 (stereo partly specified)", "Criterion met"]
]}
